Molecular target: T1, yeast mitochondrial RNA polymerase (scMtRNAP) WT (UniProt P13433 1-1351)
T1 sequence: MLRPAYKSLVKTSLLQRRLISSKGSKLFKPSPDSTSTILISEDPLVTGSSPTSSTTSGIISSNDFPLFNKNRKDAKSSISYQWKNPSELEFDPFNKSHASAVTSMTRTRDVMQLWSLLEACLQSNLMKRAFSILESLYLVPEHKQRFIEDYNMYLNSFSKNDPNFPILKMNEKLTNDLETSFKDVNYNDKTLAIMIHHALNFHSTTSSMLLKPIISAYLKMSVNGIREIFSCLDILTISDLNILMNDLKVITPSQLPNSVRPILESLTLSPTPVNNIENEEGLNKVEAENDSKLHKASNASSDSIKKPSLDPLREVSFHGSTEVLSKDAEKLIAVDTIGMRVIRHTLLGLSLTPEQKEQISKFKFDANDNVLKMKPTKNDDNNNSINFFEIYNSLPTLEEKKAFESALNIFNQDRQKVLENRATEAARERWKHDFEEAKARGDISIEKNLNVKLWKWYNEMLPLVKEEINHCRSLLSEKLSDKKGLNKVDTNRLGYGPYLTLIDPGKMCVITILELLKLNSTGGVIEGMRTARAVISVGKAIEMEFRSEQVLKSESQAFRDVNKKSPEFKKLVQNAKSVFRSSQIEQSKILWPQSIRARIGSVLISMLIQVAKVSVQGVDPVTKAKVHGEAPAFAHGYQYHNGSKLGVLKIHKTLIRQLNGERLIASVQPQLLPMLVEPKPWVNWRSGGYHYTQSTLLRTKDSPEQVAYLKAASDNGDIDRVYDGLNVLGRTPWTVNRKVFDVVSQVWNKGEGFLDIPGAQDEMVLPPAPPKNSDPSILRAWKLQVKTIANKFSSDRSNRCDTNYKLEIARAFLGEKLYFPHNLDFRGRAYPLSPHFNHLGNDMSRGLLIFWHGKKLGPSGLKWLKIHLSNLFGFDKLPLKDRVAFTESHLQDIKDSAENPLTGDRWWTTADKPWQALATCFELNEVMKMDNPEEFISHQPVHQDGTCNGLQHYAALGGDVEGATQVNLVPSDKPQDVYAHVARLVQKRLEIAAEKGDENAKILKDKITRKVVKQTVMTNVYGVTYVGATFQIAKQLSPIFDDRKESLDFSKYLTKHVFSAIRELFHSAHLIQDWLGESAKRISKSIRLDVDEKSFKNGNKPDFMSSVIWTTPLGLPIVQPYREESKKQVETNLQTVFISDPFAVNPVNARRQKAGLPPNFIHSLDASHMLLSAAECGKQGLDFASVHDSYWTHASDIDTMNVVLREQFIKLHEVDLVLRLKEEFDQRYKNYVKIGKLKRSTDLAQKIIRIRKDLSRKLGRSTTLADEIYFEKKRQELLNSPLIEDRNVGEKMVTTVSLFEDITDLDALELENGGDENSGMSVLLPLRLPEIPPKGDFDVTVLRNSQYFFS
Assay: EMSA
Quantity name: pKd
Please express pKd as -log10 of the molar concentration.

# pKd lookup, item 33 bp Bubble (pre-melted) promoter (dsDNA) DNA 1: CGCGTAAAACTATTCTTTATTACTTATATCGCG DNA 2: CGCGATATGCAGCTTAAAGAATAGTTTTACGCG
5.37
